Every entry's value here was drawn from patent US10899737B2.

// values below are reported IC50
experimental_system: ABHD6 (Homo sapiens)
Construct: Proteomes (human prefrontal cortex or cell membrane fractions); endogenous in cells; human prefrontal cortex
measurement_notes: In vitro competitive activity-based protein profiling (human), ABHD6
Type: biochemical
condition: human PC3

Record excerpt, results attached:
{"compound": "O=C(OC(C(F)(F)F)C(F)(F)F)N1CCN(Cc2ccc(C(F)(F)F)cc2C2(C(=O)O)CCOCC2)CC1", "experimental_system": "ABHD6 (Homo sapiens)", "IC50": "1 to 10 µM"}
{"compound": "O=C(O)C1CCN(c2cc(F)ccc2CN2CCN(C(=O)OC(C(F)(F)F)C(F)(F)F)CC2)CC1", "experimental_system": "ABHD6 (Homo sapiens)", "IC50": "1 to 10 µM"}
{"compound": "O=C(O)[C@@H]1CCCN1C1CCN(c2cc(C(F)(F)F)ccc2CN2CCN(C(=O)OC(C(F)(F)F)C(F)(F)F)CC2)CC1", "experimental_system": "ABHD6 (Homo sapiens)", "IC50": "1 to 10 µM"}
{"compound": "O=C(O)c1csc(-c2cc(C(F)(F)F)ccc2CN2CCN(C(=O)OC(C(F)(F)F)C(F)(F)F)CC2)c1", "experimental_system": "ABHD6 (Homo sapiens)", "IC50": "1 to 10 µM"}
{"compound": "O=C(O)Cn1ccc(-c2cc(F)ccc2CN2CCN(C(=O)OC(C(F)(F)F)C(F)(F)F)CC2)n1", "experimental_system": "ABHD6 (Homo sapiens)", "IC50": "1 to 10 µM"}

query: Look up IC50 for this compound: CC1(C(=O)O)CCCN(c2cc(C(F)(F)F)ccc2CN2CCN(C(=O)OC(C(F)(F)F)C(F)(F)F)CC2)C1 (stereo not shown)
result: 1 to 10 µM

query: Look up IC50 for this compound: `O=C(O)c1ccsc1-c1cc(C(F)(F)F)ccc1CN1CCN(C(=O)OC(C(F)(F)F)C(F)(F)F)CC1`
result: 1 to 10 µM

query: Look up IC50 for this compound: `O=C(O)C1CCN(C(=O)c2cc(CN3CCN(C(=O)OC(C(F)(F)F)C(F)(F)F)CC3)ccc2C(F)(F)F)CC1`
result: 1 to 10 µM

query: Look up IC50 for this compound: `O=C(O)CNCC1CCN(c2cc(C(F)(F)F)ccc2CN2CCN(C(=O)OC(C(F)(F)F)C(F)(F)F)CC2)CC1`
result: 1 to 10 µM

query: Look up IC50 for this compound: `O=C(OC(C(F)(F)F)C(F)(F)F)N1CCN(Cc2ccc(C(F)F)cc2C2(C(=O)O)CCCC2)CC1`
result: 1 to 10 µM

query: Look up IC50 for this compound: CC1(C(=O)O)CCN(c2cc(C(F)(F)F)ccc2CN2CCN(C(=O)OC(C(F)(F)F)C(F)(F)F)CC2)C1 (stereo not shown)
result: 0.1 to 1 µM

query: Look up IC50 for this compound: `O=C(O)[C@@H]1CCCN(c2cc(CN3CCN(C(=O)OC(C(F)(F)F)C(F)(F)F)CC3)cc(C(F)(F)F)c2)C1`
result: ≤ 0.1 µM

query: Look up IC50 for this compound: `O=C(OC(C(F)(F)F)C(F)(F)F)N1CCN(Cc2ccc(C(F)(F)F)cc2C2(C(=O)O)CCCC2)CC1`
result: 1 to 10 µM

---

experimental_system: ABHD6 (Homo sapiens)
Construct: Proteomes (human prefrontal cortex or cell membrane fractions); endogenous in cells; human prefrontal cortex
measurement_notes: In vitro competitive activity-based protein profiling (human), ABHD6
Format: biochemical
condition: human PC3
value_type: IC50

Record excerpt, results attached:
{"compound": "O=C(O)CNC1CCN(c2cc(C(F)(F)F)ccc2CN2CCN(C(=O)OC(C(F)(F)F)C(F)(F)F)CC2)CC1 [Example 49]", "recorded_value": "1 to 10 µM"}
{"compound": "CC1(C(=O)O)CCN(c2cc(Cl)ccc2CN2CCN(C(=O)OC(C(F)(F)F)C(F)(F)F)CC2)CC1 [Example 63]", "recorded_value": "0.1 to 1 µM"}
{"compound": "O=C(OC(C(F)(F)F)C(F)(F)F)N1CCN(Cc2ccccc2C2(C(=O)O)CCCC2)CC1 [Example 36]", "recorded_value": "1 to 10 µM"}
{"compound": "CC(C)(C(=O)O)N1CC2CN(c3cc(C(F)(F)F)ccc3CN3CCN(C(=O)OC(C(F)(F)F)C(F)(F)F)CC3)CC2C1 (stereo not shown) [Example 16]", "recorded_value": "1 to 10 µM"}
{"compound": "CC1(C(=O)O)CCCN(c2cc(CN3CCN(C(=O)OC(C(F)(F)F)C(F)(F)F)CC3)cc(C(F)(F)F)c2)C1 (stereo not shown) [Example 56]", "recorded_value": "≤ 0.1 µM"}
{"compound": "CCC1(C(=O)O)CCN(c2cc(CN3CCN(C(=O)OC(C(F)(F)F)C(F)(F)F)CC3)cc(C(F)(F)F)c2)CC1 [Example 53]", "recorded_value": "0.1 to 1 µM"}

API: the following record is the query input.
query: Look up IC50 for this compound: O=C(O)CN1CC2CC1CN2c1cc(C(F)(F)F)ccc1CN1CCN(C(=O)OC(C(F)(F)F)C(F)(F)F)CC1 (stereo not shown) [Example 25]
result: 1 to 10 µM

---

experimental_system: ABHD6 (Homo sapiens, UniProt Q9BV23)
Construct: Proteomes (human prefrontal cortex or cell membrane fractions); endogenous in cells; human prefrontal cortex
Sequence (Q9BV23 1-337): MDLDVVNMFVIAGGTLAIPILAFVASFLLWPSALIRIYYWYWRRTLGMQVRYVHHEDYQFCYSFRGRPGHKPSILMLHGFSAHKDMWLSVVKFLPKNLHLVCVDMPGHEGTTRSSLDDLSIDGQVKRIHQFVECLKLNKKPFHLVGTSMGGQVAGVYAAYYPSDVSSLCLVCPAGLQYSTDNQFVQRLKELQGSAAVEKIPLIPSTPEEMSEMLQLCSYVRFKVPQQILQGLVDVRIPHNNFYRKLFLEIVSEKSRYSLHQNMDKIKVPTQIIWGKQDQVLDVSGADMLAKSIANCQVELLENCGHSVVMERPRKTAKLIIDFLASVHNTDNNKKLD
measurement_notes: In vitro competitive activity-based protein profiling (human), ABHD6
Format: biochemical
condition: human PC3
Protocol: In Vitro Competitive Activity-Based Protein Profiling (Human). Proteomes (human prefrontal cortex or cell membrane fractions) (50 μL, 1.0-2.0 mg/mL total protein concentration) were preincubated with varying concentrations of inhibitors at 37° C. […] Following gel imaging, serine hydrolase activity was determined by measuring fluorescent intensity of gel bands corresponding to MAGL and ABHD6 using ImageJ 1.49 k software.
value_type: IC50

Record excerpt, results attached:
{"molecule": "O=C(O)CN1CCN(C(=O)c2cc(C(F)(F)F)ccc2CN2CCN(C(=O)OC(C(F)(F)F)C(F)(F)F)CC2)CC1", "recorded_value": "1 to 10 µM"}
{"molecule": "O=C(O)C1CCN(C(=O)c2cc(C(F)(F)F)ccc2CN2CCN(C(=O)OC(C(F)(F)F)C(F)(F)F)CC2)CC1", "recorded_value": "1 to 10 µM"}
{"molecule": "O=C(O)C1CCN(c2cc(C(F)F)ccc2CN2CCN(C(=O)OC(C(F)(F)F)C(F)(F)F)CC2)CC1", "recorded_value": "1 to 10 µM"}
{"molecule": "O=C(O)C1COCCN1c1cc(CN2CCN(C(=O)OC(C(F)(F)F)C(F)(F)F)CC2)cc(C(F)(F)F)c1 (centres unmarked)", "recorded_value": "0.1 to 1 µM"}
{"molecule": "O=C(O)Cn1ccc(-c2cc(C(F)(F)F)ccc2CN2CCN(C(=O)OC(C(F)(F)F)C(F)(F)F)CC2)n1", "recorded_value": "0.1 to 1 µM"}
{"molecule": "O=C(O)CN1CCCC12CCN(c1cc(C(F)(F)F)ccc1CN1CCN(C(=O)OC(C(F)(F)F)C(F)(F)F)CC1)CC2", "recorded_value": "1 to 10 µM"}
{"molecule": "CC1(C(=O)O)CCN(c2cc(CN3CCN(C(=O)OC(C(F)(F)F)C(F)(F)F)CC3)cc(C(F)(F)F)c2)CC1", "recorded_value": "≤ 0.1 µM"}
{"molecule": "O=C(O)[C@@H]1CCCN(c2cc(C(F)(F)F)ccc2CN2CCN(C(=O)OC(C(F)(F)F)C(F)(F)F)CC2)C1", "recorded_value": "1 to 10 µM"}
{"molecule": "O=C(OC(C(F)(F)F)C(F)(F)F)N1CCN(Cc2ccc(Cl)cc2C2(C(=O)O)CCCC2)CC1", "recorded_value": "1 to 10 µM"}
{"molecule": "O=C(O)Cn1ccc(-c2ccccc2CN2CCN(C(=O)OC(C(F)(F)F)C(F)(F)F)CC2)n1", "recorded_value": "1 to 10 µM"}

query: Look up IC50 for this molecule: O=C(O)CN1CCC(c2cc(C(F)(F)F)ccc2CN2CCN(C(=O)OC(C(F)(F)F)C(F)(F)F)CC2)C1 (centres unmarked)
result: 1 to 10 µM

query: Look up IC50 for this molecule: `O=C(O)CN1CCC(c2cc(C(F)(F)F)ccc2CN2CCN(C(=O)OC(C(F)(F)F)C(F)(F)F)CC2)CC1`
result: 1 to 10 µM

query: Look up IC50 for this molecule: O=C(O)CN1CC2CN(c3cc(C(F)(F)F)ccc3CN3CCN(C(=O)OC(C(F)(F)F)C(F)(F)F)CC3)CC2C1 (centres unmarked)
result: 1 to 10 µM

query: Look up IC50 for this molecule: `O=C(O)C1CCN(Cc2cc(C(F)(F)F)ccc2CN2CCN(C(=O)OC(C(F)(F)F)C(F)(F)F)CC2)CC1`
result: 1 to 10 µM
